- target.entity: D(4) dopamine receptor (Homo sapiens)
- condition.parameters: Compound concentration 10 µM; call rule not given here
Your answer must be one of the following: active, inactive

Any idea what this test logged for `CCCCc1nc(Cl)c(CO)n1Cc1ccc(-c2ccccc2-c2nnn[nH]2)cc1` ?
inactive

Fill in: this test's call for `COC(=O)C1=C(C)NC(C)=C(C(=O)OCCCN2CCC(c3ccccc3)(c3ccccc3)CC2)[C@H]1c1cccc([N+](=O)[O-])c1` is ___
inactive

Now for another entry.
Please share the test call associated with `Cc1cc(C)cc(C(=O)N(C)[C@H](Cc2ccc(-c3ccccc3)cc2)C(=O)N[C@@H](Cc2c[nH]c3ccccc23)C(=O)O)c1` .
inactive

---

- target.entity: Kappa-type opioid receptor (Homo sapiens)
- condition.parameters: Compound concentration 10 µM
- Description: PDSP Primary Binding target: OPRK1 - Compounds are tested at 10 uM concentration, plate are incubated at room temperature in the dark for 90 minutes. Reaction are stopped by vacuum filtration onto 0.3% polyethyleneimine soaked filter mats using Filtermate harvester. Scintilation cocktail is then melted onto microwave-dried filters on a hot plate and the radio activity is counted in Microbia counter.
property.name: inhibition (%)
Supply the numeric figure in %, leaving out any unit text.

Recorded results for 4 compounds are shown here.
Quick check: inhibition on Kappa-type opioid receptor (Homo sapiens), item `O=C(O)COc1cccc(CN(Cc2ccc(-n3cccn3)cc2)S(=O)(=O)c2cccnc2)c1` ?
-1.11

Value wanted: inhibition (Kappa-type opioid receptor (Homo sapiens)) of entry `COc1cccc([C@@H](C)NCCCc2ccccc2Cl)c1`
65.3

Please provide the recorded inhibition for `O=C(O)CC1CCC2(CC1)CCN(c1cc(OC(F)(F)F)ccc1Cl)CC2` , tested on Kappa-type opioid receptor (Homo sapiens).
10.9

Given the entry `CCc1cc2c(c(CC)n1)CCC(=O)N2Cc1ccc(-c2ccccc2-c2nnn[nH]2)cc1` , what inhibition was observed with Kappa-type opioid receptor (Homo sapiens)?
3.59

***
What reported inhibition corresponds to `O=C(O)Cn1c(C(=O)Nc2nc(-c3ccccc3Cl)cs2)cc2ccccc21` on Kappa-type opioid receptor (Homo sapiens)?
2.51

---

- target.entity: Alpha-1A adrenergic receptor (Homo sapiens) (UniProt P35348)
- Sequence (whole entry): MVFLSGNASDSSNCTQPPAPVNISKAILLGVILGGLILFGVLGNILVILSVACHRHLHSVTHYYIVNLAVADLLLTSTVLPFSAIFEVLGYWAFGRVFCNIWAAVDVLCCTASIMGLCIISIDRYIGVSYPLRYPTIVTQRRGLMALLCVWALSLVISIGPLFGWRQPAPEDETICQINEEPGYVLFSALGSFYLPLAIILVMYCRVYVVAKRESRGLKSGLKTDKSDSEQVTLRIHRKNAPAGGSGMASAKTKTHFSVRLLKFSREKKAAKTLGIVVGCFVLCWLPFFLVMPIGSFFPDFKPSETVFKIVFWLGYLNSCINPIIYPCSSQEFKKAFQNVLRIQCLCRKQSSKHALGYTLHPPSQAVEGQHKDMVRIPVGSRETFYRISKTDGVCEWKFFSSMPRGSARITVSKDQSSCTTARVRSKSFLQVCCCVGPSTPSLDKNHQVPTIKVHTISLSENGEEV
- condition.parameters: Compound concentration 10 µM; call rule not given here
Hi there, use one of these labels in your reply, thanks! class 1 = active, class 0 = inactive

# fetch the recorded call for `COc1cc2nc(N3CCN(C(=O)c4ccco4)CC3)nc(N)c2cc1OC` here
class 1

Which outcome did this test record for the compound `CCCCN1CCC(COC(=O)c2cc(Cl)c(N)c3c2OCCO3)CC1` ?
class 1

For this compound, state the assay outcome: `C[C@H](NC[C@H](O)CP(=O)(O)CC1CCCCC1)c1ccc(Cl)c(Cl)c1`
class 0

State the result this test recorded for `Nc1nc(NCCc2ccc(O)cc2)nc2nc(-c3ccco3)nn12` .
class 0

Hi, sorry to bother you, what did the test record for `Cc1cn2cc(CC(=O)N3CCC4(CC3)CN(Cc3ccc(-n5nccn5)cc3Cl)C4)nc2s1` ?
class 0

# outcome recorded in this test, key = `COc1cccc([C@H](O)C2CCN(CCc3ccc(F)cc3)CC2)c1OC`
class 0

Record request — test call for `CCCCC#Cc1nc(NC)c2ncn([C@@H]3O[C@H](CO)[C@@H](O)[C@H]3O)c2n1`
class 0

Short answer needed: outcome of this test for `C=CCN1C[C@H](C)N([C@H](c2ccc(C(=O)N(CC)CC)cc2)c2cccc(O)c2)C[C@H]1C` ?
class 0

Others:
How did this test come out for `CCCCCNC(=N)N/N=C/c1c[nH]c2ccc(OC)cc12` ?
class 1

Hi, do you know how `C[C@@H](N)Cc1c[nH]cn1` came out in this test?
class 0

Hi, sorry to bother you, what did the test record for `COc1cc(-n2cnc3cc(-c4ccc(Cl)cc4)sc3c2=O)ccc1OCCN1CCCC1` ?
class 0

Hi, do you know how `Cc1cc(C)cc(-c2cnc3cc(Cl)c(-c4cccc(O)c4)cc3c2OCCCN)c1` came out in this test?
class 0

Called result for `COc1ccc2cc(S(=O)(=O)N[C@H](CC(=O)N[C@H](Cc3ccc(CN4[C@H](C)CCC[C@@H]4C)cc3)C(=O)N(C)C(C)C)c3ccc4c(c3)OCO4)ccc2c1`
class 0

Name the outcome recorded for `Cc1c(F)cccc1NC(=O)Nc1ccc(Cl)c(S(=O)(=O)[C@H]2CCCNC2)c1O` in the assay.
class 0
